Assay: NCI Yeast Anticancer Drug Screen. Data for the mlh1 strain (AID 171)
Details: S. cerevisiae mlh1 strain growth inhibition; at 11.0 µM
Compounds without any hit were thinned out: in the full panel of roughly 79,000, 15% have a hit. Calls of active or inactive are those of the source. No stated cut-off is given here; in the data, active means growth inhibition above about 70%; inactive means the rest.
Outcome codes: T = active, F = inactive

>>> assigned_category("C[C@]12CC[C@H](O)CC1=CC[C@@H]1C2CC[C@]2(C)C(=O)NC(=O)CC12 (stereo partly drawn)")
"T"
>>> assigned_category("C[Si](C)(C)/C=C/CCNC(C#N)c1ccccc1 (stereo not drawn)")
"F"
>>> assigned_category("CC1=CC(=C(c2ccc(N)cc2)c2ccc(N)cc2)C=CC1=N")
"F"
>>> assigned_category("O=C1/C(=C/c2ccccc2)CCCC1CN1CCCCC1 (stereo not drawn)")
"F"
>>> assigned_category("O=C(O)c1ccc(N2C(=O)C=CC2=O)cc1")
"F"
>>> assigned_category("Cc1cc(C(C)(C)CC(C)(C)C)ccc1O")
"F"
>>> assigned_category("Cc1nc2ccccc2nc1NNc1ccccc1")
"F"
>>> assigned_category("O=P(NC1CCCCC1)(OCc1ccccc1)OCc1ccccc1")
"F"
>>> assigned_category("N/C(=N/N=C/c1cc(Br)cc(Br)c1O)NO")
"F"
>>> assigned_category("CCCCCCSc1ncnc2[nH]ncc12")
"F"
>>> assigned_category("CCN(CC)CCN(C)CCc1ccc(Br)cc1")
"F"
>>> assigned_category("O=c1ssc(=Nc2ccccc2)n1-c1ccccc1")
"F"
>>> assigned_category("Nc1ccc(F)cc1S")
"F"
